tested on: SH-SY5Y cells; assay: Dopamine-induced excitotoxicity, differentiated SH-SY5Y neuronal-like cells, Neutral Red viability; format: cell-based; settings: Homo sapiens, dopamine 24 h, 30 min pre-incubation, Neutral Red viability
Listing: log10(EC50) of selected compounds
Quick note: numbers are log10 of EC50, with nM as the unit.

# compound, systemTested, measurement
records = [
    ("Cc1c(C)c2c(c(C)c1O)CC[C@@](C)(C(=O)N1CCNCC1)O2 [SUL-151]", "SH-SY5Y cells", 1.84),
    ("Cc1c(C)c2c(c(C)c1O)CC[C@](C)(C(=O)N1CCNCC1)O2 [SUL-150]", "SH-SY5Y cells", 1.74),
    ("Cc1c(C)c2c(c(C)c1O)CC[C@@](C)(C(=O)N[C@@H]1CCCNC1)O2 [SUL-13]", "SH-SY5Y cells", 2.51),
]

Problem: Fill in the blank: the reported log10(EC50) of Cc1c(C)c(O)c(CC[C@@](C)(O)C(=O)N2CCN(CCO)CC2)c(C)c1O [SUL-138M2] is ____.
Result: 3.23

Problem: Fill in the blank: the reported log10(EC50) of Cc1c(C)c2c(c(C)c1O)CC[C@@](C)(C(=O)N1CCN(CCO)CC1)O2 [SUL-138] is ____.
Result: 2.82

Problem: Fill in the blank: the reported log10(EC50) of Cc1c(C)c2c(c(C)c1O)CCC(C)(C(=O)O)O2 (stereo not drawn) [SUL-11, reference compound] is ____.
Result: 3.92

* * *

system: SH-SY5Y cells; experiment: Glutamate-induced excitotoxicity, differentiated SH-SY5Y neuronal-like cells, Neutral Red viability; assay type: cell-based; conditions: Homo sapiens, 60 mM glutamate 24 h, 30 min pre-incubation, Neutral Red viability
pEC50: −log10 of the molar value.
Response field label: string, one of Satisfied (pEC50 strictly below 6) or Not satisfied.

// known answers, use as guide
# molecule, assignedCategory
measured = [
    ("Cc1c(C)c2c(c(C)c1O)CC[C@](C)(C(=O)N1CCNCC1)O2", "Not satisfied"),
    ("Cc1c(C)c2c(c(C)c1O)CCC(C)(C(=O)O)O2 (stereo not drawn) [SUL-11, reference compound]", "Satisfied"),
    ("Cc1c(C)c2c(c(C)c1O)CC[C@@](C)(C(=O)N[C@@H]1CCCNC1)O2", "Satisfied"),
    ("Cc1c(C)c2c(c(C)c1O)CC[C@@](C)(C(=O)N1CCNCC1)O2", "Not satisfied"),
]

Problem: Consider the molecule Cc1c(C)c(O)c(CC[C@@](C)(O)C(=O)N2CCN(CCO)CC2)c(C)c1O . Is its pEC50 strictly less than 6?
Result: Satisfied

* * *

Listing: Emax of selected molecules
tested on: SH-SY5Y cells; test: Glutamate-induced excitotoxicity, differentiated SH-SY5Y neuronal-like cells, Neutral Red viability; format: cell-based; conditions: Homo sapiens, 60 mM glutamate 24 h, maximal restoration of viability
Write the answer as a number in %, unit excluded.

# molecule, measureUnit, Emax
data = [
    ("Cc1c(C)c2c(c(C)c1O)CCC(C)(C(=O)O)O2 (stereo not drawn) [SUL-11, reference compound]", "%", 76.7),
    ("Cc1c(C)c2c(c(C)c1O)CC[C@@](C)(C(=O)N1CCN(CCO)CC1)O2", "%", 100),
    ("Cc1c(C)c2c(c(C)c1O)CC[C@](C)(C(=O)N1CCNCC1)O2", "%", 100),
    ("Cc1c(C)c2c(c(C)c1O)CC[C@@](C)(C(=O)N[C@@H]1CCCNC1)O2", "%", 100),
    ("Cc1c(C)c(O)c(CC[C@@](C)(O)C(=O)N2CCN(CCO)CC2)c(C)c1O", "%", 100),
]

Pending molecule:
Problem: Fill in the blank: the reported Emax of Cc1c(C)c2c(c(C)c1O)CC[C@@](C)(C(=O)N1CCNCC1)O2 is ____.
Result: 100
